Cited source for all entries: patent US20130178469A1

# Assay: Bioavailability and pharmacokinetic profile following intravenous and oral administration
# Assay type: in vivo, Male Sprague Dawley Rats
# Condition summary: male, Sprague-Dawley, rat, plasma, iv, 5 mg/kg, IV (5 mg/kg); animal 701
Measured parameter: Cmax (ng/mL)
Enter your answer as a number in ng/mL; do not include the unit.

q: State its Cmax for this molecule: CN1CCN(c2cc(N3CCN(C)S3(=O)=O)c3nc(C(=O)NCc4ccc(F)cc4)c(O)c(=O)n3c2)CC1
a: 2710

====

# Assay: Bioavailability and pharmacokinetic profile following intravenous and oral administration
# Format: in vivo, Male Sprague Dawley Rats
# Condition summary: male, Sprague Dawley, rat, plasma, po, 10 mg/kg, PO (10 mg/kg); animal 802
# Method: Method: For IV infusion over 10 minutes the compound of Example 3.4 was dissolved in 20% DMSO, 30% PEG400 and 50% Water. For oral (PO) dosing AVX62738 was dissolved in 0.5% benzyl alcohol and 0.4% Tween 80 and 99.1% 0.5% hydroxypropylmethylcellulose. Compounds were dosed IV and then after a one week washout, orally in the same rats. (Body weight: Rat 1: 254.7 g; Rat 2: 253.4 g). Ex-vivo plasma samples were assayed for AVX62738 using an LC-ms method of Lower limit of quantitation. (LLOQ)=2.5 ng/mL.
Measured parameter: AUC(0-inf) (ng·h/mL)
Enter your answer as a number in ng·h/mL; do not include the unit.

q: State its AUC(0-inf) for this molecule: CN1CCN(c2cc(N3CCN(C)S3(=O)=O)c3nc(C(=O)NCc4ccc(F)cc4)c(O)c(=O)n3c2)CC1 [Example 3.4]
a: 130

====

# Assay: Bioavailability and pharmacokinetic profile following intravenous and oral administration
# Assay type: in vivo, Male Sprague Dawley Rats
# Condition summary: male, Sprague Dawley, rat, plasma, po, 10 mg/kg, PO 10 mg/kg; Rat 1; 0.5 hr
Measured parameter: concentration at 0.5 hr (ng/mL)
Enter your answer as a number in ng/mL; do not include the unit.

q: State its concentration at 0.5 hr for this molecule: CN1CCN(c2cc(N3CCN(C)S3(=O)=O)c3nc(C(=O)NCc4ccc(F)cc4)c(O)c(=O)n3c2)CC1
a: 35.7

====

# Assay: Bioavailability and pharmacokinetic profile following intravenous and oral administration
# Format: in vivo, Male Sprague Dawley Rats
# Condition summary: male, Sprague Dawley, rat, plasma, po, 10 mg/kg, PO 10 mg/kg; Mean; 6 hr
Measured parameter: concentration at 6 h (ng/mL)
Enter your answer as a number in ng/mL; do not include the unit.

q: State its concentration at 6 h for this compound: CN1CCN(c2cc(N3CCN(C)S3(=O)=O)c3nc(C(=O)NCc4ccc(F)cc4)c(O)c(=O)n3c2)CC1
a: 1.31

====

# Assay: Bioavailability and pharmacokinetic profile following intravenous and oral administration
# Assay type: in vivo, Male Sprague Dawley Rats
# Condition summary: male, Sprague-Dawley, rat, plasma, iv, 5 mg/kg, IV (5 mg/kg); animal 702; read-out: MRT(0-∞)
Measured parameter: MRT inf (min)
Enter your answer as a number in min; do not include the unit.

q: State its MRT inf for this compound: CN1CCN(c2cc(N3CCN(C)S3(=O)=O)c3nc(C(=O)NCc4ccc(F)cc4)c(O)c(=O)n3c2)CC1 [Example 3.4]
a: 37.8

====

# Assay: Bioavailability and pharmacokinetic profile following intravenous and oral administration
# Assay type: in vivo, Male Sprague Dawley Rats
# Condition summary: male, Sprague Dawley, rat, plasma, po, 10 mg/kg, PO (10 mg/kg); animal 801
Measured parameter: AUC(0-inf) (ng·h/mL)
Enter your answer as a number in ng·h/mL; do not include the unit.

q: State its AUC(0-inf) for this compound: CN1CCN(c2cc(N3CCN(C)S3(=O)=O)c3nc(C(=O)NCc4ccc(F)cc4)c(O)c(=O)n3c2)CC1 [Example 3.4]
a: 89

====

# Assay: Bioavailability and pharmacokinetic profile following intravenous and oral administration
# Type: in vivo, Male Sprague Dawley Rats
# Condition summary: male, Sprague Dawley, rat, plasma, po, 10 mg/kg, PO (10 mg/kg); animal 802
Measured parameter: Cmax (ng/mL)
Enter your answer as a number in ng/mL; do not include the unit.

q: State its Cmax for this compound: CN1CCN(c2cc(N3CCN(C)S3(=O)=O)c3nc(C(=O)NCc4ccc(F)cc4)c(O)c(=O)n3c2)CC1
a: 91.6

====

# Assay: Bioavailability and pharmacokinetic profile following intravenous and oral administration
# Type: in vivo, Male Sprague Dawley Rats
# Condition summary: male, Sprague-Dawley, rat, plasma, iv, 5 mg/kg, IV (5 mg/kg); animal 702; read-out: Vz
# Description: Method: For IV infusion over 10 minutes the compound of Example 3.4 was dissolved in 20% DMSO, 30% PEG400 and 50% Water. For oral (PO) dosing AVX62738 was dissolved in 0.5% benzyl alcohol and 0.4% Tween 80 and 99.1% 0.5% hydroxypropylmethylcellulose. Compounds were dosed IV and then after a one week washout, orally in the same rats. (Body weight: Rat 1: 254.7 g; Rat 2: 253.4 g). Ex-vivo plasma samples were assayed for AVX62738 using an LC-ms method of Lower limit of quantitation. (LLOQ)=2.5 ng/mL.
Measured parameter: Vd (L/kg)
Enter your answer as a number in L/kg; do not include the unit.

q: State its Vd for this molecule: CN1CCN(c2cc(N3CCN(C)S3(=O)=O)c3nc(C(=O)NCc4ccc(F)cc4)c(O)c(=O)n3c2)CC1
a: 5.02

====

# Assay: Bioavailability and pharmacokinetic profile following intravenous and oral administration
# Format: in vivo, Male Sprague Dawley Rats
# Condition summary: male, Sprague Dawley, rat, plasma, iv, 5 mg/kg, IV 5 mg/kg; Rat 2; 4 hr
Measured parameter: concentration at 4 hr (ng/mL)
Enter your answer as a number in ng/mL; do not include the unit.

q: State its concentration at 4 hr for this compound: CN1CCN(c2cc(N3CCN(C)S3(=O)=O)c3nc(C(=O)NCc4ccc(F)cc4)c(O)c(=O)n3c2)CC1
a: 18.7

====

# Assay: Bioavailability and pharmacokinetic profile following intravenous and oral administration
# Assay type: in vivo, Male Sprague Dawley Rats
# Condition summary: male, Sprague Dawley, rat, plasma, po, 10 mg/kg, PO (10 mg/kg); animal 802
Measured parameter: AUC(0-t)
Form entry: enter the amount, then its unit.

q: State its AUC(0-t) for this molecule: CN1CCN(c2cc(N3CCN(C)S3(=O)=O)c3nc(C(=O)NCc4ccc(F)cc4)c(O)c(=O)n3c2)CC1 [Example 3.4]
a: 124 ng·h/mL

====

# Assay: Bioavailability and pharmacokinetic profile following intravenous and oral administration
# Type: in vivo, Male Sprague Dawley Rats
# Condition summary: male, Sprague Dawley, rat, plasma, iv, 5 mg/kg, IV 5 mg/kg; Rat 2; 0.25 hr
Measured parameter: concentration at 0.25 hr (ng/mL)
Enter your answer as a number in ng/mL; do not include the unit.

q: State its concentration at 0.25 hr for this molecule: CN1CCN(c2cc(N3CCN(C)S3(=O)=O)c3nc(C(=O)NCc4ccc(F)cc4)c(O)c(=O)n3c2)CC1
a: 2130

====

# Assay: Bioavailability and pharmacokinetic profile following intravenous and oral administration
# Assay type: in vivo, Male Sprague Dawley Rats
# Condition summary: male, Sprague Dawley, rat, plasma, iv, 5 mg/kg, IV 5 mg/kg; Mean; 6 hr
# Protocol: Method: For IV infusion over 10 minutes the compound of Example 3.4 was dissolved in 20% DMSO, 30% PEG400 and 50% Water. For oral (PO) dosing AVX62738 was dissolved in 0.5% benzyl alcohol and 0.4% Tween 80 and 99.1% 0.5% hydroxypropylmethylcellulose. Compounds were dosed IV and then after a one week washout, orally in the same rats. (Body weight: Rat 1: 254.7 g; Rat 2: 253.4 g). Ex-vivo plasma samples were assayed for AVX62738 using an LC-ms method of Lower limit of quantitation. (LLOQ)=2.5 ng/mL.
Measured parameter: concentration at 6 hr (ng/mL)
Enter your answer as a number in ng/mL; do not include the unit.

q: State its concentration at 6 hr for this compound: CN1CCN(c2cc(N3CCN(C)S3(=O)=O)c3nc(C(=O)NCc4ccc(F)cc4)c(O)c(=O)n3c2)CC1
a: 6.21

====

# Assay: Bioavailability and pharmacokinetic profile following intravenous and oral administration
# Type: in vivo, Male Sprague Dawley Rats
# Condition summary: male, Sprague Dawley, rat, plasma, po, 10 mg/kg, PO 10 mg/kg; Rat 1; 24 hr; not kept for calculation
Measured parameter: concentration at 24 h (ng/mL)
Enter your answer as a number in ng/mL; do not include the unit.

q: State its concentration at 24 h for this molecule: CN1CCN(c2cc(N3CCN(C)S3(=O)=O)c3nc(C(=O)NCc4ccc(F)cc4)c(O)c(=O)n3c2)CC1
a: 4.66

====

# Assay: Bioavailability and pharmacokinetic profile following intravenous and oral administration
# Format: in vivo, Male Sprague Dawley Rats
# Condition summary: male, Sprague Dawley, rat, plasma, iv, 5 mg/kg, IV 5 mg/kg; Mean; 0.5 hr
Measured parameter: concentration at 0.5 hr (ng/mL)
Enter your answer as a number in ng/mL; do not include the unit.

q: State its concentration at 0.5 hr for this compound: CN1CCN(c2cc(N3CCN(C)S3(=O)=O)c3nc(C(=O)NCc4ccc(F)cc4)c(O)c(=O)n3c2)CC1
a: 1140
